- System: L. donovani axenic amastigotes
- TEST_NAME: Growth inhibition of L. donovani axenic amastigotes (three-day tetrazolium dye assay)
- Type: cell-based, Leishmania donovani
- RUN_PARAMETERS: read-out: IC50 vs. L. donovani amastigotes
RECORDED_METRIC: pIC50
In plain terms, pIC50 is the concentration in mol/L turned into minus its base-10 logarithm.

Find pIC50 (L. donovani axenic amastigotes) for the entry CCCNS(=O)(=O)c1cc([N+](=O)[O-])c(N(CCC)CCC)c([N+](=O)[O-])c1
4.24

---

Measured pIC50 by item
- Test system: L. donovani axenic amastigotes
- TEST_NAME: Growth inhibition of L. donovani axenic amastigotes (three-day tetrazolium dye assay)
- Format: cell-based, Leishmania donovani
- RUN_PARAMETERS: Leishmania donovani, Table 1; mean ± standard deviation of at least two independent measurements; read-out: IC50 vs. L. donovani amastigotes
- Experimental: 2000, 110, 223-236, incorporated herein by reference.^14 Determination of the drug susceptibility of parasites and mammalian cells. […] Optical densities were then measured at 570 nm using SpectraMax Plus microplate reader. […]
In plain terms, pIC50 is the concentration in mol/L turned into minus its base-10 logarithm.

Data request, read-out pIC50, for CCCCCCN(CCCCCC)c1c([N+](=O)[O-])cc(S(N)(=O)=O)cc1[N+](=O)[O-]
4.93

Data request, read-out pIC50, for N=C(N)c1ccc(OCCCCCOc2ccc(C(=N)N)cc2)cc1 [Pentamidine, reference compound]
5.70

Data request, read-out pIC50, for CCCCN(CCCC)c1c([N+](=O)[O-])cc(S(N)(=O)=O)cc1[N+](=O)[O-]
4.70

Data request, read-out pIC50, for CCCCCN(CCCCC)c1c([N+](=O)[O-])cc(S(N)(=O)=O)cc1[N+](=O)[O-]
5.05

---

- Tested on: L. donovani axenic amastigotes
- TEST_NAME: Growth inhibition of L. donovani axenic amastigotes (three-day tetrazolium dye assay)
- Assay type: cell-based, Leishmania donovani
- RUN_PARAMETERS: Leishmania donovani, 72 h; unit inferred; three-day tetrazolium dye assay; read-out: IC50, L. donovani axenic amastigotes
- Method: 2000, 110, 223-236, incorporated herein by reference.^14 Determination of the drug susceptibility of parasites and mammalian cells. […] Optical densities were then measured at 570 nm using SpectraMax Plus microplate reader. […]
RECORDED_METRIC: pIC50
In plain terms, pIC50 is the concentration in mol/L turned into minus its base-10 logarithm.

INSERT INTO assay_data (compound, experimental_result) VALUES
  ('CCCCN(CCCC)c1c([N+](=O)[O-])cc(S(N)(=O)=O)cc1[N+](=O)[O-]', 4.70);

Next, consider the following compound.
Data request, read-out pIC50, for N=C(N)c1ccc(OCCCCCOc2ccc(C(=N)N)cc2)cc1 [Pentamidine, reference compound]
5.70

---

- Tested on: Trypanosoma brucei brucei (MITat 1.2, variant 221)
- TEST_NAME: microbe, parasite or virus in culture
- Format: cell-based
- RUN_PARAMETERS: Trypanosoma brucei, 72 h, read-out: IC50, T. b. brucei variant 221
RECORDED_METRIC: pIC50
In plain terms, pIC50 is the concentration in mol/L turned into minus its base-10 logarithm.

Data request, read-out pIC50, for CCCN(CCC)c1c([N+](=O)[O-])cc(S(=O)(=O)Nc2ccccc2)cc1[N+](=O)[O-] [Compound 20]
6.39

---

- Test system: P. falciparum D6 strain
- TEST_NAME: In vitro sensitivity of P. falciparum D6 strain (tritiated hypoxanthine uptake)
- Assay type: cell-based, Plasmodium falciparum
- RUN_PARAMETERS: Plasmodium falciparum, D6, read-out: IC50, P. falciparum D6 strain
- Method: Determination of the drug susceptibility of parasites and mammalian cells. […] Optical densities were then measured at 570 nm using SpectraMax Plus microplate reader. […]
RECORDED_METRIC: IC50 (µM)
Enter your answer as a number in µM; do not include the unit.

INSERT INTO results (molecule, experimental_result) VALUES
  ('CCCCN(CCCC)c1c([N+](=O)[O-])cc(S(N)(=O)=O)cc1[N+](=O)[O-] [Compound 15]', 5.1);

Data request, read-out IC50, for CCCN(CCC)c1c([N+](=O)[O-])cc(S(=O)(=O)Nc2ccccc2)cc1[N+](=O)[O-] [Compound 20]
11

Data request, read-out IC50, for CCCCCCN(CCCCCC)c1c([N+](=O)[O-])cc(S(N)(=O)=O)cc1[N+](=O)[O-] [Compound 17]
10

---

- System: L. donovani promastigotes
- TEST_NAME: Growth inhibition of L. donovani promastigotes
- Format: cell-based, Leishmania donovani
- RUN_PARAMETERS: Leishmania donovani, read-out: IC50 vs. L. donovani promastigotes
Measured IC50 by item
Enter your answer as a number in µM; do not include the unit.

Worked cases, IC50 given:
INSERT INTO measurements (compound, target, unit, experimental_result) VALUES
  ('CCCCN(CCCC)c1c([N+](=O)[O-])cc(S(N)(=O)=O)cc1[N+](=O)[O-] [Compound 15]', 'L. donovani promastigotes', 'µM', 17.8),
  ('CCCCCCN(CCCCCC)c1c([N+](=O)[O-])cc(S(N)(=O)=O)cc1[N+](=O)[O-] [Compound 17]', 'L. donovani promastigotes', 'µM', 12.2),
  ('CCCN(CCC)c1c([N+](=O)[O-])cc(S(=O)(=O)Nc2ccccc2)cc1[N+](=O)[O-] [Compound 20]', 'L. donovani promastigotes', 'µM', 14.7);

Next, consider the following compound.
Data request, read-out IC50, for CCCCCN(CCCCC)c1c([N+](=O)[O-])cc(S(N)(=O)=O)cc1[N+](=O)[O-] [Compound 16]
8.02

---

- Tested on: PC3 cells
- TEST_NAME: Toxicity to PC3 cells (three-day CellTiter assay)
- Format: cell-based
- RUN_PARAMETERS: three-day tetrazolium dye assay; mean ± SD; read-out: IC50, PC3 prostate
RECORDED_METRIC: pIC50
In plain terms, pIC50 is the concentration in mol/L turned into minus its base-10 logarithm.

Data request, read-out pIC50, for CCCNS(=O)(=O)c1cc([N+](=O)[O-])c(N(CCC)CCC)c([N+](=O)[O-])c1
4.39

---

- Tested on: J774 murine macrophages
- TEST_NAME: Toxicity to J774 macrophages (three-day CellTiter assay)
- Format: cell-based
- RUN_PARAMETERS: read-out: IC50, J774 macrophages
RECORDED_METRIC: IC50 (µM)
Enter your answer as a number in µM; do not include the unit.

Find IC50 (J774 murine macrophages) for the entry CCCNS(=O)(=O)c1cc([N+](=O)[O-])c(N(CCC)CCC)c([N+](=O)[O-])c1
21.8

Find IC50 (J774 murine macrophages) for the entry CCCN(CCC)c1c([N+](=O)[O-])cc(S(=O)(=O)Nc2ccccc2)cc1[N+](=O)[O-]
30.8

---

- Tested on: L. donovani promastigotes
- TEST_NAME: Growth inhibition of L. donovani promastigotes
- Assay type: cell-based, Leishmania donovani
- RUN_PARAMETERS: mean ± standard deviation of at least two independent measurements; read-out: IC50 vs. L. donovani promastigotes
Measured pIC50 by item
In plain terms, pIC50 is the concentration in mol/L turned into minus its base-10 logarithm.

Worked cases, pIC50 given:
INSERT INTO measurements (compound_structure_string, recorded_metric, experimental_result) VALUES
  ('CCCNc1c([N+](=O)[O-])cc(S(N)(=O)=O)cc1[N+](=O)[O-]', 'pIC50', 4.17),
  ('CCCNS(=O)(=O)c1cc([N+](=O)[O-])c(N(CCC)CCC)c([N+](=O)[O-])c1', 'pIC50', 4.25);

Find pIC50 (L. donovani promastigotes) for the entry NS(=O)(=O)c1cc([N+](=O)[O-])c(N2CCCC2)c([N+](=O)[O-])c1
4.01
